pKi values for the molecules below.
experimental_target: Cannabinoid receptor 1 (Rattus norvegicus, UniProt P20272)
Sequence (P20272 whole entry): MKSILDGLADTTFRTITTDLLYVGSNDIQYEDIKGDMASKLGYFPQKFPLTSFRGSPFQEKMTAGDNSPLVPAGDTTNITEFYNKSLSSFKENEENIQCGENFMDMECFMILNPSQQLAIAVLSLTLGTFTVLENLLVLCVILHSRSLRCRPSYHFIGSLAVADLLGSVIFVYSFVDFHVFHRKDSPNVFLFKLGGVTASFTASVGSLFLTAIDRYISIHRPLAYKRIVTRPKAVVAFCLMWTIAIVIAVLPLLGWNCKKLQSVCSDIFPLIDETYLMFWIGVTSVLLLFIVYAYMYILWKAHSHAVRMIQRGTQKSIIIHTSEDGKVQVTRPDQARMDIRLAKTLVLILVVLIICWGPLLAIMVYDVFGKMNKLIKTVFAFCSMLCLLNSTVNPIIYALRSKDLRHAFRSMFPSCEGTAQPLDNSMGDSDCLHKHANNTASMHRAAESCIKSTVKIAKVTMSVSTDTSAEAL
experiment_description: The compound was tested for Ki value against rat whole brain P2 membrane preparation in presence of enzyme inhibitor PMSF.
Answer as the number alone; pKi is minus log10 of concentration in mol/L.

Here is how some molecules turned out for pKi.
CCCCC/C=C\C/C=C\C/C=C\C/C=C\CCCCOCC1CC1 :: 6.24
CCCCC/C=C\C/C=C\C/C=C\C/C=C\CCCNC(=O)NC :: 6.36
CCCCC/C=C\C/C=C\C/C=C\C/C=C\CCCNC(=O)NCCOC :: 6.13
CCCCC/C=C\C/C=C\C/C=C\C/C=C\CCCCOCCCC :: 5.77
CCCCC/C=C\C/C=C\C/C=C\C/C=C\CCCNC(=O)OC(C)C :: 5.91

// lookup pKi for `CCCCC/C=C\C/C=C\C/C=C\C/C=C\CCCNC(=O)OCC` 6.66

// lookup pKi for `CCCCC/C=C\C/C=C\C/C=C\C/C=C\CCCCOCC` 5.66

// lookup pKi for `CCCCC/C=C\C/C=C\C/C=C\C/C=C\CCCCOCCC` 5.97

* * *

ED50 values for the compounds below.
System: Mus musculus
experiment_description: The compound tested in vivo for antinociception as measured by tail flick response(TF)
Type: functional
I only need the number, in mg/kg, no unit after it.

Here is how some compounds turned out for ED50.
CCCCC/C=C\C/C=C\C/C=C\C/C=C\CCCC(=O)NCCO [ANANDAMIDE] :: 6.2
CCCCC/C=C\C/C=C\C/C=C\C/C=C\CCCNC(=O)NCCO :: 4
CCCCC/C=C\C/C=C\C/C=C\C/C=C\CCCNC(=O)NC(C)C :: 2.4
CCCCC/C=C\C/C=C\C/C=C\C/C=C\CCCNC(=O)NCCF :: 6.4
CCCCC/C=C\C/C=C\C/C=C\C/C=C\CCCNC(=O)NCC :: 3.3

// lookup ED50 for `CCCCC/C=C\C/C=C\C/C=C\C/C=C\CCCNC(=O)NC` 12.3

// lookup ED50 for `CCCCC/C=C\C/C=C\C/C=C\C/C=C\CCCNC(=O)NCCC` 8.9

* * *

experimental_target: UniProt:P20272
experiment_description: The compound was tested for Ki value against rat whole brain P2 membrane preparation in presence of enzyme inhibitor PMSF.
parameter: pKi
Answer as the number alone; pKi is minus log10 of concentration in mol/L.

Here is how some compounds turned out for pKi.
CCCCC/C=C\C/C=C\C/C=C\C/C=C\CCCCOCC(C)C :: 5.61
CCCCC/C=C\C/C=C\C/C=C\C/C=C\CCCCOC(=O)NC(C)C :: 6.00
CCCCC/C=C\C/C=C\C/C=C\C/C=C\CCCNC(=O)NCCO :: 6.46
CCCCC/C=C\C/C=C\C/C=C\C/C=C\CCCNC(=O)NCC :: 6.81
CCCCC/C=C\C/C=C\C/C=C\C/C=C\CCCCOC(=O)NCCC :: 6.33
C#CCOCCCC/C=C\C/C=C\C/C=C\C/C=C\CCCCC :: 5.80

// lookup pKi for CCCCC/C=C\C/C=C\C/C=C\C/C=C\CCCCOC(C)CC (stereo not drawn) 5.88

* * *

experimental_target: UniProt P20272
experiment_description: The compound was tested for Ki value against rat whole brain P2 membrane preparation in presence of enzyme inhibitor PMSF.
parameter: log10 Ki (log10 of the value in µM)
Quick note: numbers are log10 of Ki, with µM as the unit.

CCCCC/C=C\C/C=C\C/C=C\C/C=C\CCCCOC(=O)NCC :: 0.34
CCCCC/C=C\C/C=C\C/C=C\C/C=C\CCCNC(=O)OCCF :: -0.48
CCCCC/C=C\C/C=C\C/C=C\C/C=C\CCCCOC :: 0.63
CCCCC/C=C\C/C=C\C/C=C\C/C=C\CCCNC(=O)NC(C)C :: -0.88
C=CCOCCCC/C=C\C/C=C\C/C=C\C/C=C\CCCCC :: 0.07

// lookup log10 Ki for `CCCCC/C=C\C/C=C\C/C=C\C/C=C\CCCCOC(C)C` -0.06

// lookup log10 Ki for `CCCCC/C=C\C/C=C\C/C=C\C/C=C\CCCCOCCO` -0.10

// lookup log10 Ki for `CCCCC/C=C\C/C=C\C/C=C\C/C=C\CCCNC(=O)NCC(C)C` -0.47
